- assay.comment: Total body clearance in rat following administration of 10 mg/kg, p.o. and 10 mg/kg i.v.
- Assay type: ADME, organism-based
- experimental.parameters: in vivo, iv
readout.type: clearance (mL/min/kg)
Write the value in mL/min/kg as a bare number.

## Input Name the recorded clearance of the compound listed here: CCCC(CCC)N1CCc2cn(-c3ccc(C)cc3Cl)c3nc(C)cc1c23
## Output 70

###

Listed here are compounds together with their documented Ki.
- tested.on: Corticotropin-releasing factor receptor 1 (Homo sapiens, UniProt P34998)
- Sequence (P34998 whole entry): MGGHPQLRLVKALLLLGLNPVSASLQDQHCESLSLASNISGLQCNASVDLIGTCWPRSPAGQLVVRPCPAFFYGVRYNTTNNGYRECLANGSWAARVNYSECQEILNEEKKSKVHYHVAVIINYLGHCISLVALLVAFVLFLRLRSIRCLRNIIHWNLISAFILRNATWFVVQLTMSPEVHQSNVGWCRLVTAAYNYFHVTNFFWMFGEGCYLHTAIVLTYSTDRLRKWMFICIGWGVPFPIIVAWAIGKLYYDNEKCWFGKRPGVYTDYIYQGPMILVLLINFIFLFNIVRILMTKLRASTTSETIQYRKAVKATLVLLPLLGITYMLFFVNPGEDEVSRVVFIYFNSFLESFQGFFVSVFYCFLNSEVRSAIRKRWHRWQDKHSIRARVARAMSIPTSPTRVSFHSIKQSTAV
- assay.comment: Inhibition of [125I]sauvagine binding to corticotropin releasing factor receptor 1 expressed in LtK- cells
- Format: cell-based
Respond with the figure and its unit, in that order.

For orientation, consider the following solved cases.
## Input Using the record for CCCC(CCC)N1CCc2cn(-c3ccc(C)cc3Cl)c3nc(C)cc1c23 , state its measured Ki.
## Output 3.5 nM

## Input Determine its reported Ki: CCC(CC)N1CCc2cn(-c3ccc(OC(F)(F)F)cc3C)c3nc(C)cc1c23
## Output 6 nM

## Input Identify measured Ki corresponding to CCCCN1CCc2cn(-c3ccc(Cl)cc3C#N)c3nc(C)cc1c23
## Output 49 nM

---
## Input Please give measured Ki of the following entry: CCC(COC)N1CCc2cn(-c3ccc(Cl)cc3C#N)c3nc(C)cc1c23 (centres undefined)
## Output 40 nM

## Input Note Ki for the compound shown: CCCC(CCC)N1CCc2cn(-c3ccc(OC)nc3OC)c3nc(C)cc1c23
## Output 5.4 nM

## Input Look up Ki of CCCC(CCC)N1CCc2cn(-c3ccccc3OC)c3nc(C)cc1c23 and report it.
## Output 55 nM

## Input For the compound CCCC(CCC)N1CCc2nn(-c3ccc(Cl)cc3Cl)c3nc(C)cc1c23 , report Ki.
## Output 2.9 nM

## Input Complete the entry with Ki for CCCC(CCC)N1CCc2cn(-c3ccc(Cl)cc3C#N)c3nc(C)cc1c23
## Output 13 nM

## Input Dear colleague, please send me the reported Ki for CCC(CC)N1CCc2cn(-c3ccc(Cl)cc3C#N)c3nc(C)cc1c23 when you can.
## Output 62 nM
